Source listed as ChEMBL document CHEMBL1154341.

Study target: Protease (Human immunodeficiency virus 1)
Experimental protocol: Inhibition of HIV1 protease
Entries and their IC50
The figure you give is taken to be in µM; do not add the unit.

structure_smiles=CC(C)c1cc2c(c(O)c1O)[C@@]1(C(=O)O)CCCC(C)(C)[C@@H]1CC2 measured_endpoint=IC50 data_value=0.24

Next item in the queue.
-- ask Hello, please tell me recorded IC50 for this one: COc1cc(/C=C/C(=O)CC(=O)/C=C/c2ccc(O)c(OC)c2)ccc1O
-- reply 100

* * *

Study target: Protease (Human immunodeficiency virus 1)
Experimental protocol: Competitive inhibition of HIV1 protease by Lineweaver-Burke plot analysis
Measured endpoint: pKi
Please note pKi is a logarithmic value: minus log10 of concentration in mol/L. Answer with that number alone.

-- ask Hello, please tell me recorded pKi for this one: CC(C)=CCC/C(C)=C/CC/C(=C/Cc1cc(O)ccc1O)C(=O)O
-- reply 5.40
